Data origin, for the record: patent US20190309034A1

Molecular target: Recombinant soluble 60-mer human BAFF (His-HuBAFF 134-285) (human, UniProt Q9Y275 134-285)
Assay: cell-based or functional assay
Soluble 60-mer huBAFF (4 pM) Neutralization IC50 listing for selected binders.
The answer is to be given in pM; state only the numeric part.

Known Soluble 60-mer huBAFF (4 pM) Neutralization IC50 results, listed for orientation:
>  <Binder>
384D5A2 (antibody, V domains shown) VH: QVTLKESGPGILQPSQTLSLTCSFSGFSLNTYGMGVGWIRQPSGKGLEWLANIWWNDDKYYNSALKSRLAISKDASNSQVFLKISSVDTTDTATYYCAQVAATIVTTYGAWFAYWGQGTLVTVSA VL: DIQMTQSPASLSVSVGETVTITCRSSENIYSSLAWYQQKQGKSPQLLVYAATNLAKGVPSRFSGSGSGTQYSLKINSLQSEDFGSYFCQHFWGSPFAFGSGTKLEIK

>  <Endpoint unit>
pM

>  <Test result>
15

$$$$
>  <Binder>
27I21-3C7 (antibody, V domains shown) VH: QVQLQQSGPELVRPGTSVKISCKAPGYIFTSHWMQWVRQRPGQGLEWIGDIFPGSGTTDYNEKFKDKATVTVDRSSSSAYMQFNSLTSEDSAVYFCASGAFDYWGQGTTLTVSS VL: DIQMTQSPSSLSASLGERVSLTCRASQDIGNRLNWLQQAPDGTIKRLIYATSSLDSGVPKRFSGSRSGSDYSLTISSLESEDFVDYYCLQYASYPFTFGTGTKLEIK

>  <Endpoint unit>
pM

>  <Test result>
11

$$$$

[Q] Requested field: Soluble 60-mer huBAFF (4 pM) Neutralization IC50. Item: 394F5A5 (antibody, V domains shown) VH: VTLKESGPGILQPSQTLSLTCSFSGFSLRTFGMGVGWIRQPSGKGLEWLAHIWWNDEKYYNPTLKSRLTISKDTSKNQVFLRIANVDTAVTAAYYCARIGPSITTVVEGFPYWGQGTLVTVSA VL: DIVMTQSQKFMSTTIGDRVSITCKASQNVGSAVAWYQQKPGQPPKLLIYSTSNRYTGVPDRFTGSRSGTDFTLTVSNMQSEDLADYFCQQYASYPLTFGTGTKLELK
[A] 7
